Each entry below carries its recorded pIC50.
# Tested on: MCF-7 cells
# ASSAY NOTES: Breast cancer cell viability assay (CellTiter-Glo, 5 days)
# Format: cell-based
# EXPERIMENTAL CONDITIONS: Homo sapiens, MCF7, 120 h, 5 days' compound exposure
pIC50: −log10 of the molar value.

Request: Consider the compound "CC/C(=C(/c1ccc(/C=C/C(=O)O)cc1)c1ccc2[nH]ncc2c1F)c1ccncc1Cl" and give its measured pIC50.
Result: ≥ 7.00

Request: Then what about the compound "CC/C(=C(/c1ccc(/C=C/C(=O)O)cc1)c1ncc2[nH]ncc2n1)c1ccccc1" ?
Result: < 7.00

Request: Also check "CC/C(=C(/c1ccc(/C=C/C(=O)O)cc1)c1ccc2c(c1)SCC(=O)N2)c1ccccc1"
Result: < 7.00

Request: Now give it for "CNC(=O)/C=C/c1ccc(/C(=C(\c2ccccc2)C2CCC2)c2ccc3[nH]ncc3c2)cc1" too.
Result: ≥ 7.00

Request: Now consider "CC/C(=C(/c1ccc(/C=C/C(=O)O)cc1)c1ccc2ccccc2c1)c1ccccc1" and answer again.
Result: < 7.00

Request: What do you get for "CC/C(=C(/c1ccc(/C=C/C(=O)O)cc1)c1ccc2[nH]ncc2c1)c1ccc(OCCCC(=O)O)cc1" ?
Result: < 7.00

***
Request: Please report the recorded pIC50 for "CC/C(=C(/c1ccc(/C=C/C(=O)NS(C)(=O)=O)cc1)c1ccc2[nH]ncc2c1)c1ccccc1" .
Result: ≥ 7.00

* * *

# EXPERIMENTAL SYSTEM: ER-α in MCF-7 cells (Homo sapiens, UniProt P03372)
# Sequence (P03372 whole entry): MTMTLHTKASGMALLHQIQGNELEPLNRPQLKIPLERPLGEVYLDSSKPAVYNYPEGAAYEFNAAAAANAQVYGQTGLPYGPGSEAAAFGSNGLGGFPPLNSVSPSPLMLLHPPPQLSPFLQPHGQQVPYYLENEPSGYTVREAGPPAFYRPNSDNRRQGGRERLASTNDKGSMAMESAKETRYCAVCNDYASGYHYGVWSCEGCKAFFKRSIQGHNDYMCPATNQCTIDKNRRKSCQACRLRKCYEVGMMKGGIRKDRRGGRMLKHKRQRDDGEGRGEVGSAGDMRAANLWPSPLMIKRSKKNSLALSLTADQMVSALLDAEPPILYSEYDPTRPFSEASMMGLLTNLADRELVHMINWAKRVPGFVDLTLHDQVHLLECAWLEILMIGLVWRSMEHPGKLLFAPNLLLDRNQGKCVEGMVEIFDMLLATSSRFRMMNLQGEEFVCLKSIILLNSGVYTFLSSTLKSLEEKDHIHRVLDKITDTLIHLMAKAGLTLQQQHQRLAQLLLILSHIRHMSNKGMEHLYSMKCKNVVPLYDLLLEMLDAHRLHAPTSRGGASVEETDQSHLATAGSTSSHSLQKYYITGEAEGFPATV
# ASSAY NOTES: Breast cancer cell ER-α in cell western assay (SP1)
# Assay type: cell-based
# Parameters: endogenous in cells; host or cells: MCF-7
# EXPERIMENTAL CONDITIONS: SP1 antibody, 4 or 24 hr post compound addition, read-out: ER-α In Cell Western Assay (SP1) IC50
EXPERIMENTAL ENDPOINT: DC50

Please review the following examples before continuing.
Request: Quick one: DC50 for CCOC(=O)/C=C/c1ccc(/C(=C(/CC)c2ccc(F)cc2Cl)c2ccc3c(cnn3C3CCCCO3)c2)cc1 (stereo not drawn) ?
Result: > 0.1 µM

Request: Next compound: "CC/C(=C(/c1ccc(/C=C/C(=O)O)cc1)c1ccc2[nH]nc(F)c2c1)c1ccncc1Cl"
Result: ≤ 0.1 µM

Request: Now consider "CC/C(=C(/c1ccc(/C=C/C(=O)O)cc1)c1cnc2[nH]ncc2c1)c1ccccc1" and answer again.
Result: > 0.1 µM

Request: Note, next up: "CC/C(=C(/c1ccc(/C=C/C(=O)O)cc1)c1ccc2[nH]ncc2c1)c1cccc(Oc2ccccc2)c1F"
Result: ≤ 0.1 µM

Could you now consider this next compound?
Request: Give its DC50 value. Item: "CC/C(=C(/c1ccc(/C=C/C(=O)O)cc1)c1ccc2c(cnn2-c2ccccc2)c1)c1ccccc1"
Result: > 0.1 µM

* * *

# Tested on: MCF-7 cells
# ASSAY NOTES: Breast cancer cell viability assay (CellTiter-Glo, 5 days)
# Format: cell-based
# EXPERIMENTAL CONDITIONS: Homo sapiens, MCF7, 120 h, 5 days' compound exposure
pIC50: −log10 of the molar value.
EXPERIMENTAL ENDPOINT: pIC50

Request: Recorded pIC50 for "CC/C(=C(/c1ccc(/C=C/C(=O)O)cc1)c1ccc2[nH]ncc2c1)c1ccccn1" , please?
Result: < 7.00

Request: Param item: "CC/C(=C(/c1ccc(/C=C/C(=O)O)cc1)c1ccc2scnc2c1)c1cccc(Oc2ccccc2)c1"
Result: < 7.00

Request: Try this compound too: "CC/C(=C(/c1ccc(/C=C/C(=O)O)cc1)c1ccc2[nH]ncc2c1)c1ccc(Oc2ccccc2)cc1C"
Result: ≥ 7.00

Request: Please do the same for "CC/C(=C(/c1ccc(OCCN2CCCC2)cc1)c1ccc2[nH]ncc2c1)c1ccccc1" as well.
Result: ≥ 7.00

* * *

# Tested on: MCF-7 cells
# ASSAY NOTES: Breast cancer cell viability assay (CellTiter-Glo, 5 days)
# Assay type: cell-based
# EXPERIMENTAL CONDITIONS: Homo sapiens, MCF7, 120 h, 5 days' compound exposure
pIC50: −log10 of the molar value.
# pIC50 per entry

Request: Which measured pIC50 value corresponds to CCOC(=O)/C=C/c1ccc(/C(=C(/CC)c2ccc(F)cc2Cl)c2ccc3c(cnn3C3CCCCO3)c2)cc1 (stereo not shown) ?
Result: ≥ 7.00

Request: // repeat for CC/C(=C(/c1ccc(/C=C/C(=O)O)cc1)c1ccc2[nH]ncc2c1)c1ccc([S+]([O-])C(F)(F)F)cc1 (stereo not shown) and report
Result: ≥ 7.00

Request: Same question, "CC/C(=C(/c1ccc(/C=C/C(=O)O)cc1)c1ccc2[nH]ncc2c1)c1ccncc1C" this time
Result: ≥ 7.00

* * *

# Test system: MCF-7 cells
# ASSAY NOTES: Breast cancer cell viability assay (CellTiter-Glo, 5 days)
# Format: cell-based
# EXPERIMENTAL CONDITIONS: Homo sapiens, MCF7, 120 h, 5 days' compound exposure
EXPERIMENTAL ENDPOINT: IC50

Request: Quick one: IC50 of "CCCCCOc1ccc(/C(CC)=C(\c2ccc(/C=C/C(=O)O)cc2)c2ccc3[nH]ncc3c2)cc1" ?
Result: > 100 nM

Request: How about "CC/C(=C(/c1ccc(/C=C/C(=O)O)cc1)c1ccc2c(cnn2C(C)=O)c1)c1ccc(F)cc1Cl" ?
Result: ≤ 100 nM

Request: Another compound to look at: "CC/C(=C(/c1ccc(/C=C/C(=O)O)cc1)c1ccc2nsnc2c1)c1ccccc1"
Result: > 100 nM

Further cases:
Request: Look up IC50 for this compound: "CC/C(=C(/c1ccc(/C=C/C(=O)O)cc1)c1ccc2[nH]ncc2c1)c1ccncc1Cl"
Result: ≤ 100 nM

Request: Same question for "CC/C(=C(/c1ccc(/C=C/C(=O)O)cc1)c1ccc2[nH]ncc2c1)c1cccc(-c2cccnc2)c1" please.
Result: ≤ 100 nM

Request: Repeat with "CC/C(=C(/c1ccc(/C=C/C(=O)O)cc1)c1ccc2[nH]ncc2c1)c1cc2ccccc2s1"
Result: > 100 nM

Request: Next entry: "CC/C(=C(/c1ccc(/C=C/C(=O)O)cc1)c1ccc2nccnc2c1)c1ccccc1"
Result: > 100 nM

* * *

Property: Emax; scope: individual compounds
# EXPERIMENTAL SYSTEM: ER-α in MCF-7 cells (Homo sapiens)
# ASSAY NOTES: Breast cancer cell ER-α in cell western assay (SP1)
# Format: cell-based
# Design: endogenous in cells; host or cells: MCF-7
# EXPERIMENTAL CONDITIONS: MCF7, SP1 antibody, 4 or 24 hr post compound addition, read-out: ER-α In Cell Western Assay (SP1) Max Response

Request: Please provide the recorded Emax for "CC/C(=C(/c1ccc(/C=C/C(=O)O)cc1)c1ccc2[nH]ncc2c1)c1ccc(OCC(=O)O)cc1" , tested on ER-α in MCF-7 cells (Homo sapiens).
Result: < 40%

Request: Check "CC/C(=C(/c1ccc(/C=C/C(=O)O)cc1)c1ccc2[nH]ncc2c1)c1cccc(-n2cccn2)c1" too.
Result: ≥ 40%

Request: Now consider "CC/C(=C(/c1ccc(/C=C/C(=O)O)cc1)c1ccc2c(c1)CNC2=O)c1ccc(F)cc1Cl" and answer again.
Result: ≥ 40%

More entries:
Request: Lab request: please report Emax under test system ER-α in MCF-7 cells (Homo sapiens) for CC/C(=C(/c1ccc(/C=C/C(=O)O)cc1)c1ccc2[nH]ncc2c1)c1ccc([S+]([O-])C(F)(F)F)cc1 (stereo not shown)
Result: ≥ 40%

Request: What do you get for "CC/C(=C(/c1ccc2cc(/C=C/C(=O)O)ccc2c1)c1ccc2[nH]ncc2c1)c1ccccc1" ?
Result: ≥ 40%

Request: # iterate: "CC/C(=C(/c1ccc(/C=C/C(=O)O)cc1)c1ccc2[nH]ncc2c1)c1cccc(Oc2ccccc2S(C)(=O)=O)c1"
Result: ≥ 40%

Request: And the next one, "CC/C(=C(/c1ccc(/C=C/C(=O)O)cc1)c1ccc2[nH]ncc2c1)c1ccncc1C(F)(F)F" ?
Result: ≥ 40%

* * *

# EXPERIMENTAL SYSTEM: ER-α in MCF-7 cells (Homo sapiens)
# ASSAY NOTES: Breast cancer cell ER-α in cell western assay (SP1)
# Type: cell-based
# Set-up: endogenous in cells; host or cells: MCF-7
# EXPERIMENTAL CONDITIONS: SP1 antibody, 4 or 24 hr post compound addition, read-out: ER-α In Cell Western Assay (SP1) IC50
EXPERIMENTAL ENDPOINT: DC50

Examples from the recorded data:
Request: What value of DC50 has been reported for the following compound? "CC/C(=C(/c1ccc(/C=C/C(=O)O)cc1)c1ccc2[nH]ncc2c1)c1cccc(Oc2ccccc2F)c1"
Result: ≤ 100 nM

Request: Here is the next compound: "CC/C(=C(/c1ccc(/C=C/C(=O)O)cc1)c1cc(F)c2[nH]ccc2c1)c1ccccc1"
Result: ≤ 100 nM

Request: Try "CC/C(=C(/c1ccc(/C=C/C(=O)O)cc1)c1ccc2[nH]ncc2c1)c1ccc(-c2cnn(C)c2)cc1" next.
Result: > 100 nM

Request: How about this compound: "CC/C(=C(/c1ccc(/C=C/C(=O)O)cc1)c1ccc2[nH]ncc2c1)c1cc2c(s1)CCN(C)C2"
Result: > 100 nM

Request: Same question, "CC/C(=C(/c1ccc(/C=C/C(=O)NS(=O)(=O)c2ccccc2)cc1)c1ccc2[nH]ncc2c1)c1ccc(F)cc1Cl" this time
Result: ≤ 100 nM

Others:
Request: Param item = "CC/C(=C(/c1ccc(/C=C/C(=O)O)cc1)c1ccc2[nH]ncc2c1)c1cccc(-c2nccs2)c1" ; retrieve measured DC50.
Result: ≤ 100 nM

Request: Follow-up entry: "CC/C(=C(/c1ccc(/C=C/C(=O)O)cc1)c1ccc2[nH]ncc2c1)c1ccc(Oc2ccccc2)cc1"
Result: ≤ 100 nM

Request: "CC/C(=C(/c1ccc(/C=C/C(=O)O)cc1)c1ccc2[nH]ncc2c1)c1ccc(Oc2cnccn2)cc1" ?
Result: ≤ 100 nM

Request: Field entry: "CC/C(=C(/c1ccc(/C=C/C(=O)O)cc1)c1ccc2c(c1)COC(=O)N2)c1ccccc1"
Result: > 100 nM

Request: // query: "CC/C(=C(/c1ccc(/C=C/C(=O)O)cc1)c1ccc2[nH]ncc2c1)c1ccncc1C(F)(F)F"
Result: ≤ 100 nM

Request: # repeat for "CC/C(=C(/c1ccc(/C=C/C(=O)O)cc1)c1ccc2[nH]ncc2c1)c1ccc(OCCCC(=O)O)cc1"
Result: > 100 nM

Request: Repeat with "CC/C(=C(/c1ccc(/C=C/C(=O)O)cc1)c1cccc2[nH]ncc12)c1ccccc1Cl"
Result: ≤ 100 nM

Request: Can you handle "CC/C(=C(/c1ccc(OC[C@H](C)N2CC[C@@H](C)C2)cc1)c1ccc2[nH]ncc2c1)c1ccccc1Cl" next?
Result: ≤ 100 nM

Request: Lookup "CC/C(=C(/c1ccc(/C=C/C(=O)O)cc1)c1ccc2nonc2c1)c1ccccc1"
Result: > 100 nM

Request: Try this compound too: "CC/C(=C(/c1ccc(/C=C/C(=O)O)cc1)c1ccc2[nH]ncc2c1)c1ccc2c(c1)OCCO2"
Result: ≤ 100 nM
